Source: ChEMBL document CHEMBL1128252

System: Human immunodeficiency virus 1
Assay: Effective concentration required to achieve 50% protection of MT-4 cells against the cytopathic effect of HIV-1.
Format: functional, organism-based
Details: Human immunodeficiency virus 1, MT4
pIC50: −log10 of the molar value.

compound | pIC50
CC(C)=CCN1CCn2c(=O)[nH]c3cc(Cl)cc(c32)C1C (centres undefined) | 6.80
C=C1CC2Cn3c(S)nc4cc(Cl)cc(c43)CN2C1 (centres undefined) | < 5.00
C=C(C)CN1Cc2cccc3nc(O)n(c23)C(c2ccccc2)C1 (centres undefined) | < 3.60
CC(C)=CCN1[C@@H](C)Cn2c(S)nc3cc(Cl)cc(c32)[C@@H]1C | < 5.00
CC(C)=CCN1Cc2cc(Cl)cc3nc(O)n(c23)C[C@@H]1C(C)C | < 5.00
CCCN1CCn2c(=S)[nH]c3cccc(c32)C1C (centres undefined) | 5.61
C/C=C1/CC2Cn3c(S)nc4cc(Cl)cc(c43)CN2C1 (centres undefined) | 5.42
C=C(C)CN1Cc2cccc3nc(S)n(c23)C[C@H]1C | 7.59
C=C(C)CN1Cc2cc(Cl)cc3[nH]c(=S)n(c23)[C@@H](C)C1 | 6.17
C=C(C)CN1Cc2cccc3[nH]c(=O)n(c23)CC1(C)C | 4.64
S=c1[nH]c2cc(Cl)cc3c2n1CCN1CCCCC31 (centres undefined) | < 5.70
CC(C)=CCN1[C@H](C)Cn2c(=S)[nH]c3cc(Cl)cc(c32)[C@H]1C | 6.32
CC(C)=CCN1Cc2cccc3[nH]c(=S)n(c23)C(C)C1C (centres undefined) | 4.84
CC1Cn2c(O)nc3cccc(c32)CN1 (centres undefined) | < 3.60
Oc1nc2cccc3c2n1CC(c1ccccc1)NC3 (centres undefined) | < 3.60
CC(C)=CCN1[C@@H](C)Cn2c(=O)[nH]c3cc(Cl)cc(c32)[C@@H]1C | < 5.30
C=C(C)CN1Cc2cccc3nc(O)n(c23)C[C@@H]1C(C)C | < 5.00
CCCN1CCn2c(=O)[nH]c3cccc(c32)C1C (centres undefined) | < 4.08
CCCN1Cc2cccc3[nH]c(=O)n(c23)C(C(C)C)C1 (centres undefined) | 4.13
CC(C)=CCN1C(C)Cn2c(=S)[nH]c3cccc(c32)C1C (centres undefined) | 5.94
CCCN1Cc2cccc3nc(O)n(c23)C(c2ccccc2)C1 (centres undefined) | < 3.60
CC(C)=CCN1Cc2cccc3nc(O)n(c23)C(C)C1C (centres undefined) | 4.25
CC(C)=CCN1CCn2c(=S)[nH]c3cc(Cl)cc(c32)C1C (centres undefined) | 7.64
CC(C)=CCN1Cc2cccc3nc(O)n(c23)C[C@@H]1C(C)C | < 5.00
Oc1nc2cccc3c2n1CC1CCCN1C3 (centres undefined) | < 3.60
CC1CNCc2cccc3nc(O)n1c23 (centres undefined) | < 3.60
CC(C)C1Cn2c(O)nc3cccc(c32)CN1 (centres undefined) | < 3.60
CC(C)=CCN1CCn2c(S)nc3cc(Cl)c4c(c32)C1CC4 (centres undefined) | < 5.70
CCC1Cn2c(O)nc3cccc(c32)CN1 (centres undefined) | < 3.60
CC(C)=CCN1CCn2c(O)nc3cc(Cl)cc(c32)C1CC(C)C (centres undefined) | < 5.70
CC(C)=CCN1CCn2c(S)nc3cccc(c32)C1c1ccccc1 (centres undefined) | < 5.70
CC(C)=CCN1CCn2c(=S)[nH]c3cccc(c32)C1C (centres undefined) | 7.11
C=C(C)CN1Cc2cccc3[nH]c(=O)n(c23)C(C)C1 (centres undefined) | 4.49
O=C1Nc2ccccc2-n2c(S)nc3cccc1c32 | < 3.60
CC(C)[C@H]1Cn2c(O)nc3cc(Cl)cc(c32)CN1 | < 5.00
CC(C)=CCN1Cc2cccc3nc(S)n(c23)C[C@@H]1C(C)C | < 5.00
C[C@@H]1Cn2c(S)nc3cc(Cl)cc(c32)CN1CC1CC1 | 7.47
C[C@@H]1Cn2c(S)nc3cccc(c32)CN1CC1CC1 | 7.22
Oc1nc2cccc3c2n1C(c1ccccc1)CNC3 (centres undefined) | < 3.60
CC(C)=CCN1[C@H](C)Cn2c(=O)[nH]c3cc(Cl)cc(c32)[C@H]1C | 6.64
CC1(C)Cn2c(O)nc3cccc(c32)CN1 | < 3.60
CC(C)=CCN1Cc2cc(Cl)cc3nc(S)n(c23)C[C@H]1C(C)C | < 5.00
C=C(C)CN1Cc2cccc3nc(O)n(c23)CC1c1ccccc1 (centres undefined) | < 5.00
CC1C(C)n2c(S)nc3cccc(c32)CN1CC1CC1 (centres undefined) | 4.87
Sc1nc2cc(Cl)cc3c2n1CCN1CCCC31 (centres undefined) | < 5.70
CCCN1Cc2cc(Cl)cc3[nH]c(=S)n(c23)C(=O)C1C (centres undefined) | < 4.30
CC(C)=CCN1CCn2c(=S)[nH]c3cc(Cl)cc(c32)C1 | 6.80
CC(C)=CCN1CCn2c(S)nc3cc(Cl)cc(c32)C1CC(C)C (centres undefined) | < 5.70
CC1NCCn2c(O)nc3cccc1c32 (centres undefined) | < 3.60
